In this section we review reported protein stability index values for a set of variants.
B1: IKZF1 (parent)
chain: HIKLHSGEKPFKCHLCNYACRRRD

variants of: B1; test: protein stability index of a GFP-peptide fusion (GPS, HEK-293T) (PSI 1-6); higher = more stable; conditions: c terminus: a fixed tail appended;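 note: lentivirally expressed fusions sorted by FACS into six bins by GFP to DsRed ratio, PSI derived from sequencing read proportions per bin multiplied by bin number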
Please reply with the number alone, leaving off any unit.

Solved cases (4 shown):
- C13I: 2.28
- H14T: 2.42
- P10S: 1.75
- A19F: 2.07

// protein stability index lookup, variant = H1L , result: 2.04

Form field protein stability index, entry K9G : 2.12

Summary for this variant, R23V : protein stability index is 2.4

This collection of values is drawn from the supplement of paper PMC10567573.
